Test system: MCF7
protocol: NCI tumour cell line growth inhibition, 48 h
Activity calls are given as the source filed them. Rule as the data show it: active = GI50 up to about 1.1 µM and inactive = higher.
The reply should be one of these categories: Yes (active), No (inactive)

[
  {
    "compound": "O=C(O)c1ccccc1NCn1c(=S)sc2ccccc21",
    "answerLabel": "No"
  },
  {
    "compound": "Nc1nc(Cl)cc(NCC2(CO)CC(c3ccccc3)C2)n1 (stereo not given)",
    "answerLabel": "No"
  },
  {
    "compound": "CCOC(=O)c1sc2c(c1OC(=O)c1ccc(OC)cc1)c(=O)n(-c1ccccc1)c(=S)n2-c1ccccc1",
    "answerLabel": "No"
  },
  {
    "compound": "C=CCN1C(N)=C(C#N)C(C#N)(C#N)C1CCC (stereo not given)",
    "answerLabel": "No"
  },
  {
    "compound": "COc1ccc2cc(C(C)C(=O)N3CCOC3=O)ccc2c1 (stereo not given)",
    "answerLabel": "No"
  }
]

// next entry
[in] GET /call?item= CC(C(=O)O)c1ccc(-c2ccccc2)c(F)c1 (stereo not given) returns the recorded outcome of this test.
[out] No

---

GI50 listing for selected molecules.
System: OVCAR-3
protocol: NCI tumour cell line growth inhibition, 48 h
Activity calls are given as the source filed them. Rule as the data show it: active = GI50 up to about 1.1 µM and inactive = higher.

[in] Observed GI50 on OVCAR-3 for "C[C@]12CCC(=O)C=C1CC[C@@H]1[C@@H]2[C@@H](O)C[C@@]2(C)[C@H]1CC[C@]2(O)C(=O)COC(=O)C1CCCC1" , please.
[out] > 100 µM (inactive)

---

Tested on: RXF 393
protocol: NCI tumour cell line growth inhibition, 48 h
Activity calls are given as the source filed them. Cut-off read from the data, not from the text of the source: active = GI50 up to about 1.1 µM and inactive = higher.
Below: a set of entries, each annotated with reported GI50.

Worked examples follow.
[
  {
    "molecule": "COc1ccc(Br)c(CN2CCc3ccccc32)c1OS(=O)(=O)c1ccc(C)cc1",
    "GI50": "8.67 µM (inactive)"
  },
  {
    "molecule": "COc1cc2c(cc1OC)C1c3ccccc3C(C#N)(C2)N(C(=O)c2ccccc2)C1O (stereo not drawn)",
    "GI50": "85.5 µM (inactive)"
  }
]

[in] # query: GI50 of entry CC1(Cl)CC(C)(/C=C/Cl)C(Cl)CC1Cl (stereo not drawn)
[out] 14.8 µM (inactive)

---

Tested on: Malme-3M
protocol: NCI tumour cell line growth inhibition, 48 h
Active and inactive are the calls of the source. Cut-off read from the data, not from the text of the source: active = GI50 up to about 1.1 µM and inactive = higher.
In this exercise, the only acceptable responses are active, inactive

Known results for molecules:
[
  {
    "molecule": "C/C(=N\\NC(=O)c1ccncc1)c1sc(-n2nc(-c3ccccc3)cc2-c2ccccc2)nc1C",
    "answerLabel": "inactive"
  },
  {
    "molecule": "Cn1c2ccccc2c2ccc3c(c21)C(=O)C(c1ccccc1)=CC3=O",
    "answerLabel": "inactive"
  },
  {
    "molecule": "C=C(C)C(=O)O[C@H]1CC2=CC(CC(C)=C[C@H]3OC(=O)C(=C)C13)OC2=O (stereo not given in full)",
    "answerLabel": "inactive"
  },
  {
    "molecule": "O=C1NC(=O)C(c2c[nH]c3ccccc23)=C1c1cnc[nH]1",
    "answerLabel": "inactive"
  }
]

[in] What classification did "COc1ccc2c(c1)C(N)=C(c1ccccc1OC)C2=O" end up with in this test?
[out] inactive

[in] // same read-out, input: CCCCNC(=O)OCCN=C1c2ccccc2C(Br)C(Br)c2ccccc21 (stereo not given)
[out] inactive

[in] Follow-up item: COc1cc(C2c3cc4c(cc3[C@@H](Oc3ccc(F)cc3)C3COC(=O)[C@H]23)OCO4)cc(OC)c1O (stereo not given in full)
[out] active
